- System: SK-OV-3 ovarian
- Test summary: NCI tumour cell line growth inhibition, 48 h
Measurement label: TGI

Quick one: TGI of `c1ccc(Nc2nnc(Cn3ccc4ccccc43)s2)cc1` ? > 100 µM

Quick one: TGI of `COc1cccc(-c2nc3sccn3c2-c2ccnc(NCCNS(=O)(=O)c3ccccc3)c2)c1` ? > 100 µM

Quick one: TGI of `C=C(C)CN(CC#N)CC(=C)C` ? > 100 µM

Quick one: TGI of O=C1c2ccccc2C2(O)NC(=S)N(c3ccccc3)C12O (stereo unspecified) ? > 100 µM

Quick one: TGI of `O=C(N/N=C/c1ccccc1Cl)c1ccccc1Nc1ccnc(C(F)(F)F)c1` ? 5.31 µM

Quick one: TGI of `COc1ccc2cc3[n+](cc2c1OC)CCc1cc(O)c(O)cc1-3` ? > 100 µM

Quick one: TGI of `C=CCN1C=CC(=O)[C@H](O[Si](C)(C)C(C)(C)C)[C@@H]1/C=C/c1ccccc1` ? 28.6 µM

Quick one: TGI of `c1cc(OCCN2CCCCC2)ccc1CNc1ccc2nc(CCC3CCCCC3)[nH]c2c1` ? 4.18 µM

Quick one: TGI of COc1ccc2c(c1)OC1=C(C(=O)OC1)C2c1cc(OC)c(OC)c(OC)c1 (stereo unspecified) ? > 49.5 µM

Quick one: TGI of `COC(=O)C1=C(\c2ccccc2)c2ccccc2C(=O)N(C2CCCCC2)/C=C\1` ? > 100 µM

Quick one: TGI of `Nc1nc(=S)[nH]c(C(=O)Nc2ccc(Cl)c(Cl)c2)c1-c1ccc(Cl)cc1` ? > 100 µM

====

# Lookup of reported TGI keyed by entry
- System: PC-3 prostate
- Test summary: NCI tumour cell line growth inhibition, 48 h
Write the answer as a number in µM, unit excluded.

In [3]: df
Out[3]:
                             compound  measurement_label  value_observed
0  CCN=c1cc2sc3cc(NCC)c(C)cc3nc-2cc1C                TGI            4.72

Quick one: TGI of CCC1=CC2Cc3nc4cc(Cl)ccc4c(N)c3C(C1)C2 (stereo not given) ? 18.4

Quick one: TGI of `COc1cc2cc(C(=O)Nc3cc(N)c4ccccc4c3CCCl)[nH]c2c(OC)c1OC` ? 1.59

Quick one: TGI of `CCCN1CCN(c2ccc3nc(-c4ccc5nc(-c6cc(OC)ccc6OC)[nH]c5c4)[nH]c3c2)CC1` ? 4.04

====

- Tested on: UO-31 renal
- Test summary: NCI tumour cell line growth inhibition, 48 h
Measurement label: TGI

In [3]: df
Out[3]:
                                   compound  target_or_system  value_observed
0  COc1cc(C2c3cc4c(cc3OC(Nc3ccccc3)C2C)OCO4)cc(OC)c1OC (configuration not stated)       UO-31 renal        > 100 µM
1                           NNc1nc2ccccc2s1       UO-31 renal        > 100 µM
2                  O=c1cc(CBr)c2ccc(O)cc2o1       UO-31 renal        > 100 µM

Now take the following compound into account.
Quick one: TGI of `Cc1ccc(/C=C/C(=O)c2sc(-c3cccnc3)nc2C)cc1` ? > 100 µM
